# credit: PubChem BioAssay

# Tested on: XIP peptide (Xip251-270)
# protocol_details: compounds binding XIP fragment 251-270 – biochemical, small-molecule microarray, fluorescence 635/667 nm, 0.5 µg/mL protein, primary screen (AID 1183)
# stated_conditions: fluorescence 635 nm, higher = more signal
reported_endpoint: composite z-score
Just the number, please, no unit attached.

Tell me measured composite z-score for CN1C(=O)C2C=CC(C(O)C3=C[C@H]4C[C@@H](C3)C4(C)C)N(Nc3ccc([N+](=O)[O-])cc3[N+](=O)[O-])C2C1=O (some centres not stated) please.
0.704

Entry `CCCC[C@H]1OB(O)C[C@H]2C1=C(C)Cn1c(=O)n(-c3ccccc3)c(=O)n12` needs its composite z-score filled in; supply it.
0.116

In one line, give reported composite z-score of the entry `COC(=O)[C@@]1(Cc2ccccc2)[C@H]2c3cc(C(=O)N(C)C)n(Cc4cc(F)c(F)c(F)c4)c3C[C@H]2CN1C(=O)c1ccccc1` .
0.0006

Return value of composite z-score for input `CCCC[C@@H]1C[C@H]1[C@@H](NC(=O)c1ccco1)c1ccccc1` , no commentary.
-0.041

Name the recorded composite z-score of the item `COC(=O)[C@@]1(Cc2ccc(F)cc2)[C@H]2c3cc(C(=O)N4CCCC4)n(Cc4ccc(Cl)c(C(F)(F)F)c4)c3C[C@H]2CN1C(=O)c1ccccc1` in your answer.
0.625

Assign composite z-score to the following record: O=C1C2C=CC(C(O)c3ccc(Br)cc3)N(n3cnnc3)C2C(=O)N1Cc1ccccc1 (configuration not stated)
0.76

Identify measured composite z-score associated with CC1CC/C=C\[C@H]2OC34C=CCN(Cn5nnc6ccccc65)C(=O)[C@H]3N(CCCO)C(=O)[C@@H]4C2C(=O)O1 (some centres not stated)
0.13
